Assay: Inhibition of human intestinal carboxylesterase using o-nitrophenyl acetate as substrate
pKi: −log10 of the molar value.
Tag: t if measured pKi is not below 7, f if it is.

A selection of reference data follows.
smiles_structure=CC1(C)CCc2ccc3c(c2C1)C(=O)C(=O)C(F)=C3 class_name=t
smiles_structure=CC1(C)CCc2ccc3c(c2C1)C(=O)C(=O)C=C3F class_name=f
smiles_structure=CC(C)C1=Cc2ccc3c(c2C(=O)C1=O)CC(C)(C)CC3 class_name=t
smiles_structure=CC1=Cc2ccc3c(c2C(=O)C1=O)CCC(C)(C)C3 class_name=f
smiles_structure=CC1=CC(=O)C(=O)c2c1ccc1c2CCCC1 class_name=f

## Input Please tell me: is the molecule CC1(C)CCc2ccc3c(c2C1)C(=O)C(=O)C(F)=C3F at or over 7 in terms of pKi?
## Output t

## Input Then what about the molecule O=C1C(=O)c2c(ccc3ccccc23)C=C1F ?
## Output t

## Input Moving on to O=C1C=Cc2ccc3ccccc3c2C1=O
## Output f

## Input For O=C1C=C(F)c2ccc3c(c2C1=O)CCCC3 then?
## Output f

## Input Would you mind doing O=C1C=Cc2ccc3c(c2C1=O)CCCC3 as well?
## Output f

----------
Molecular target: Acetylcholinesterase (Homo sapiens) (UniProt P22303)
Sequence (P22303 whole entry): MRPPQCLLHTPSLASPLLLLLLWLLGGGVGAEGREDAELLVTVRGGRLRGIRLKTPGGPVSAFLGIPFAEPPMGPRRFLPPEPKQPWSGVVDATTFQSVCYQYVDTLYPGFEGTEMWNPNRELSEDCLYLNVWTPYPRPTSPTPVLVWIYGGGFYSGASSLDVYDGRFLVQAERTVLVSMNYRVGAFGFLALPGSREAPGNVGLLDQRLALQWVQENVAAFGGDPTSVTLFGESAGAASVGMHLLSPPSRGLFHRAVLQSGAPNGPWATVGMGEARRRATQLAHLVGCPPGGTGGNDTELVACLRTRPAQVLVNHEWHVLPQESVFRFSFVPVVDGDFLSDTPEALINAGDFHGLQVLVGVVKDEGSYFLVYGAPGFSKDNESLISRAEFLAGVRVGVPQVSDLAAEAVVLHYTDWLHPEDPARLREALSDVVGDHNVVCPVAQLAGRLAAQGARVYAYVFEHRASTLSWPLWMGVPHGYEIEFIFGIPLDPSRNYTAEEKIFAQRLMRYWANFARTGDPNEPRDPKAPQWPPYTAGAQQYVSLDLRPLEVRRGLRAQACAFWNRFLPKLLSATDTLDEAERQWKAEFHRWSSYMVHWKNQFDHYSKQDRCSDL
Assay: Inhibition of human AChE using acetylthiocholine as substrate at 5 uM by spectrophotometric analysis
REPORTED METRIC: inhibition (%)
Entry rule: numbers only, all in %.

Record excerpt, results attached:
smiles_structure=CC1=Cc2ccc3c(c2C(=O)C1=O)CCOC3 readout_value=27
smiles_structure=CC(C)C1=Cc2ccc3c(c2C(=O)C1=O)CCC(C)(C)C3 readout_value=30
smiles_structure=CC1(C)CCc2ccc3c(c2C1)C(=O)C(=O)C(F)=C3 readout_value=3
smiles_structure=O=C1C=Cc2ccc3c(c2C1=O)CCCC3 readout_value=0

## Input For the compound shown here, CC1=Cc2ccc3c(c2C(=O)C1=O)CC(C)(C)CC3 , give the reported inhibition.
## Output 0

## Input Same read-out for CC(C)C1=Cc2ccc3c(c2C(=O)C1=O)CCCC3 ?
## Output 16

## Input Now try CC1=CC(=O)C(=O)c2c1ccc1c2CCCC1 .
## Output 13

## Input Can you check O=C1C(=O)c2c(ccc3c2CCCC3)C=C1F next?
## Output 16

## Input Another compound: O=C1C(=O)c2c(ccc3ccccc23)C=C1F
## Output 8

## Input Also need CC1=Cc2ccc3c(c2C(=O)C1=O)CCC(C)(C)C3 , thanks.
## Output 1

## Input For CC1(C)CCc2ccc3c(c2C1)C(=O)C(=O)C(F)=C3F then?
## Output 4

## Input Query O=C1C=C(F)c2ccc3c(c2C1=O)CCCC3 next
## Output 4

----------
Molecular target: Cholinesterase (Homo sapiens) (UniProt P06276)
Sequence (P06276 whole entry): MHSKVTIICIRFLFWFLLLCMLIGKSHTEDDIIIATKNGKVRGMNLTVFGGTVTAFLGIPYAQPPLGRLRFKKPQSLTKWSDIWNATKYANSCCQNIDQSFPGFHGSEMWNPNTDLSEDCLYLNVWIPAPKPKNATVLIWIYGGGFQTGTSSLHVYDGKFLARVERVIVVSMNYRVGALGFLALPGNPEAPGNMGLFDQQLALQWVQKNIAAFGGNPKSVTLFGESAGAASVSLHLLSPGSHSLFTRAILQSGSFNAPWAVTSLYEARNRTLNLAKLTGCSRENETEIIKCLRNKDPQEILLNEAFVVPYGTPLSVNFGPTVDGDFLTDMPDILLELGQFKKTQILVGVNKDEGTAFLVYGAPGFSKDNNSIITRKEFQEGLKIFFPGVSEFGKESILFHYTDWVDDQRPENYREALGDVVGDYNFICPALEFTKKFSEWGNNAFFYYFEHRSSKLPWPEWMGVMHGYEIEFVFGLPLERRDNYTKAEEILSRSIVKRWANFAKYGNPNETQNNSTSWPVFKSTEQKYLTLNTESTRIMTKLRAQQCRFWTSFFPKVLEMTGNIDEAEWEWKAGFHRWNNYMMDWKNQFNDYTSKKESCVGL
Assay: Inhibition of human BChE using butyrylthiocholine as substrate at 5 uM by spectrophotometric analysis
REPORTED METRIC: inhibition (%)
Write down the numeric answer in % and omit the unit.

Example results:
smiles_structure=O=C1C=Cc2ccc3c(c2C1=O)CCCC3 reported_metric=inhibition readout_value=54
smiles_structure=CC1=Cc2ccc3c(c2C(=O)C1=O)CCOC3 reported_metric=inhibition readout_value=0
smiles_structure=CC(C)C1=Cc2ccc3c(c2C(=O)C1=O)CCCC3(C)C reported_metric=inhibition readout_value=6
smiles_structure=CC1(C)CCc2ccc3c(c2C1)C(=O)C(=O)C=C3F reported_metric=inhibition readout_value=15
smiles_structure=CC1=CC(=O)C(=O)c2c1ccc1c2CCCC1 reported_metric=inhibition readout_value=30
smiles_structure=CC1(C)CCc2ccc3c(c2C1)C(=O)C(=O)C=C3 reported_metric=inhibition readout_value=13
smiles_structure=O=C1C=Cc2ccc3ccccc3c2C1=O reported_metric=inhibition readout_value=13
smiles_structure=CC1(C)CCc2ccc3c(c2C1)C(=O)C(=O)C(F)=C3F reported_metric=inhibition readout_value=1

## Input Entry CC1=Cc2ccc3c(c2C(=O)C1=O)CCC(C)(C)C3 , system Cholinesterase (Homo sapiens) (UniProt P06276): what inhibition was measured?
## Output 2

## Input For CC(C)C1=Cc2ccc3c(c2C(=O)C1=O)CCC(C)(C)C3 then?
## Output 3

## Input Try this molecule too: O=C1C(=O)c2c(ccc3c2CCCC3)C=C1F
## Output 62

## Input What would you report for COC1=Cc2ccc3c(c2C(=O)C1=O)CC(C)(C)CC3 ?
## Output 1

----------
Recorded Ratio Ki, one value per entry.
Species on record: Homo sapiens
Test: Selectivity index, ratio of Ki for human liver carboxylesterase 1 to Ki for human intestinal carboxylesterase
Write the number on its own, no unit after it.

Example compounds with recorded Ratio Ki:
smiles_structure=O=C1C(=O)c2c(ccc3c2CCCC3)C=C1F readout_value=0.11
smiles_structure=O=C1C=Cc2ccc3c(c2C1=O)CCCC3 readout_value=0.06
smiles_structure=CC1(C)CCc2ccc3c(c2C1)C(=O)C(=O)C=C3F readout_value=0.04
smiles_structure=CC1=Cc2ccc3c(c2C(=O)C1=O)CCCC3 readout_value=2.9
smiles_structure=CC(C)C1=Cc2ccc3c(c2C(=O)C1=O)CCC(C)(C)C3 readout_value=59.5
smiles_structure=CC1(C)CCc2ccc3c(c2C1)C(=O)C(=O)C(F)=C3 readout_value=2.9
smiles_structure=CC1=Cc2ccc3c(c2C(=O)C1=O)CCC(C)(C)C3 readout_value=2.7
smiles_structure=CC1=Cc2ccc3c(c2C(=O)C1=O)CC(C)(C)CC3 readout_value=27.6
smiles_structure=CC1(C)CCc2ccc3c(c2C1)C(=O)C(=O)C=C3 readout_value=0.09
smiles_structure=COC1=Cc2ccc3c(c2C(=O)C1=O)CC(C)(C)CC3 readout_value=0.3

## Input I would be grateful if you could share the reported Ratio Ki for O=C1C=C(F)c2ccc3c(c2C1=O)CCCC3 .
## Output 0.15

## Input // query: O=C1C(=O)c2c(ccc3ccccc23)C=C1F
## Output 0.48

## Input Param item: CC1(C)CCc2ccc3c(c2C1)C(=O)C(=O)C(F)=C3F
## Output 2.3

## Input Thanks! And CC(C)C1=Cc2ccc3c(c2C(=O)C1=O)CC(C)(C)CC3 ?
## Output 60

----------
Target: Acetylcholinesterase (Homo sapiens) (UniProt P22303)
Assay: Inhibition of human AChE using acetylthiocholine as substrate at 5 uM by spectrophotometric analysis
Record rule met whenever inhibition is at 5% or higher; record rule not met when lower.

Check out these entries, answers already filled in.
smiles_structure=CC1(C)CCc2ccc3c(c2C1)C(=O)C(=O)C=C3F assayed_system="Acetylcholinesterase (Homo sapiens) (UniProt P22303)" class_name="rule met"
smiles_structure=CC1(C)CCc2ccc3c(c2C1)C(=O)C(=O)C=C3 assayed_system="Acetylcholinesterase (Homo sapiens) (UniProt P22303)" class_name="rule not met"
smiles_structure=CC(C)C1=Cc2ccc3c(c2C(=O)C1=O)CC(C)(C)CC3 assayed_system="Acetylcholinesterase (Homo sapiens) (UniProt P22303)" class_name="rule met"
smiles_structure=CC(C)C1=Cc2ccc3c(c2C(=O)C1=O)CCCC3(C)C assayed_system="Acetylcholinesterase (Homo sapiens) (UniProt P22303)" class_name="rule met"
smiles_structure=COC1=Cc2ccc3c(c2C(=O)C1=O)CC(C)(C)CC3 assayed_system="Acetylcholinesterase (Homo sapiens) (UniProt P22303)" class_name="rule not met"

Then there is this molecule:
## Input # bool: inhibition of O=C1C=Cc2ccc3ccccc3c2C1=O >= 5%
## Output rule met

----------
Target: Liver carboxylesterase 1 (Homo sapiens, UniProt P23141)
Sequence (P23141 whole entry): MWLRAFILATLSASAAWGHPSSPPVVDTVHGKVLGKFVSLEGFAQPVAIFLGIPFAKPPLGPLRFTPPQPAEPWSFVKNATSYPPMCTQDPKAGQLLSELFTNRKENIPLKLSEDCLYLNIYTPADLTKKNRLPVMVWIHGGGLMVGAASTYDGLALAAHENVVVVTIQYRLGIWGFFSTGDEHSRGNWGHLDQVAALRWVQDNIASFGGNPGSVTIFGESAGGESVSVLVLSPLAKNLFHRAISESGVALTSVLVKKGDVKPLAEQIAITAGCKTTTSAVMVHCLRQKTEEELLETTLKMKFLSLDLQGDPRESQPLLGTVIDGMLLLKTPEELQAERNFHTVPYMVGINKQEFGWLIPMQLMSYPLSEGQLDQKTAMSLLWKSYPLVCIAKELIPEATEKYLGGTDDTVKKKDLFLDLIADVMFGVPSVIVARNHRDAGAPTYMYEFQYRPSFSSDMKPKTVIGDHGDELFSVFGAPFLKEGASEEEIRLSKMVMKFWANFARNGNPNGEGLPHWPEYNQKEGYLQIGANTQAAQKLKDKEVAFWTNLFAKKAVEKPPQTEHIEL
Could you mark each record Met if its Ki falls strictly under 100 nM, and Not met if it equals or exceeds it?

Worked examples follow.
smiles_structure=COC1=Cc2ccc3c(c2C(=O)C1=O)CC(C)(C)CC3 assayed_system="Liver carboxylesterase 1 (Homo sapiens, UniProt P23141)" class_name=Met
smiles_structure=CC(C)C1=Cc2ccc3c(c2C(=O)C1=O)CC(C)(C)CC3 assayed_system="Liver carboxylesterase 1 (Homo sapiens, UniProt P23141)" class_name="Not met"
smiles_structure=CC1(C)CCc2ccc3c(c2C1)C(=O)C(=O)C(F)=C3 assayed_system="Liver carboxylesterase 1 (Homo sapiens, UniProt P23141)" class_name=Met
smiles_structure=O=C1C=Cc2ccc3ccccc3c2C1=O assayed_system="Liver carboxylesterase 1 (Homo sapiens, UniProt P23141)" class_name="Not met"
smiles_structure=CC1=Cc2ccc3c(c2C(=O)C1=O)CCCC3 assayed_system="Liver carboxylesterase 1 (Homo sapiens, UniProt P23141)" class_name="Not met"
smiles_structure=CC1=Cc2ccc3c(c2C(=O)C1=O)CCC(C)(C)C3 assayed_system="Liver carboxylesterase 1 (Homo sapiens, UniProt P23141)" class_name="Not met"

## Input Is it true that Ki reported for O=C1C(=O)c2c(ccc3c2CCCC3)C=C1F is less than 100 nM?
## Output Met

## Input Check O=C1C=C(F)c2ccc3c(c2C1=O)CCCC3 too.
## Output Met

## Input Another molecule: O=C1C=Cc2ccc3c(c2C1=O)CCCC3
## Output Not met

## Input Similarly, CC1(C)CCc2ccc3c(c2C1)C(=O)C(=O)C=C3 ?
## Output Met

## Input Would you mind doing CC1=CC(=O)C(=O)c2c1ccc1c2CCCC1 as well?
## Output Met

All figures here come from ChEMBL document CHEMBL4196054.
